These measurements were taken from paper PMC7449411.

Assign RFK+FMNAT % Res. act. 250 μM to each entry below.
- MEASURED_ON: RFK+FMNAT CaFADS activities (Corynebacterium ammoniagenes, UniProt Q59263)
- Construct: made in house; host or cells: Escherichia coli BL21(DE3)
- Sequence (Q59263 whole entry): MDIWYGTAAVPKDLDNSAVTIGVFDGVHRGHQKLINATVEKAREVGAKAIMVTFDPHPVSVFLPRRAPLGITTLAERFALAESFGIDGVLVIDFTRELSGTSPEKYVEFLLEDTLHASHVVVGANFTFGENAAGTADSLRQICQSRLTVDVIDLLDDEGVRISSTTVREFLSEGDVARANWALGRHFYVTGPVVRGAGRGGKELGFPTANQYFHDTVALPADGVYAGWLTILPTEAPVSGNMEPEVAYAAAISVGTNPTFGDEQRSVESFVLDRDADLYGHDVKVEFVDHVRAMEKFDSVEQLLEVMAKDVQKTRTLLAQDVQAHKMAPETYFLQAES
- ASSAY_TEXT: Inhibition of the RFK+FMNAT activity of CaFADS
- Format: biochemical
- PROTOCOL_CONDITIONS: residual activity at 250 μM of compound, 25 °C
One number for each entry, in %.

Consider the reported RFK+FMNAT % Res. act. 250 μM for these compounds:
// query Observed RFK+FMNAT % Res. act. 250 μM on RFK+FMNAT CaFADS activities (Corynebacterium ammoniagenes, UniProt Q59263) for COc1ccc(C(NC(=O)CCC(NC(=O)OCc2ccccc2)C(=O)O)c2ccc(OC)cc2)cc1 (stereo not drawn) [Compound C2] , please.
// result 88

// query Observed RFK+FMNAT % Res. act. 250 μM on RFK+FMNAT CaFADS activities (Corynebacterium ammoniagenes, UniProt Q59263) for CC(C)c1ccc(NC(=S)NNC(=O)NC(=O)c2csc([N+](=O)[O-])c2)cc1 [Compound C6] , please.
// result 57

// query Observed RFK+FMNAT % Res. act. 250 μM on RFK+FMNAT CaFADS activities (Corynebacterium ammoniagenes, UniProt Q59263) for Cc1c(N=CN(C(=O)c2ccccc2)c2cccc([N+](=O)[O-])c2C)cccc1[N+](=O)[O-] [Compound C7] , please.
// result 82

Hi, could you look up RFK+FMNAT % Res. act. 250 μM for each item in my list?
1. O=C(NCCNc1ccc(C(F)(F)F)cc1[N+](=O)[O-])c1cccnc1Oc1ccccc1 [Compound C26]
2. CSC(=NS(=O)(=O)c1c(C)noc1C)NNC(=O)Nc1ccc(Cl)cc1 [Compound C9]
3. CC1(C(=O)O)CCC2C(CCC3CC(O)CCC32C)C1C=C1Nc2ccccc2C1=O (stereo not drawn) [Compound C3]

// result
84
76
48

====

- System: C. ammoniagenes
- ASSAY_TEXT: MIC, resazurin broth microdilution
- Assay type: cell-based, Corynebacterium ammoniagenes
- PROTOCOL_CONDITIONS: C. ammoniagenes, media MH
Assign MIC to each entry below.
Give bare numbers, in µM.

// query Observed MIC on C. ammoniagenes for CC(C)c1ccc(NC(=S)NNC(=O)NC(=O)c2csc([N+](=O)[O-])c2)cc1 [Compound C6] , please.
// result 128

Alright, here's another compound for you.
// query Observed MIC on C. ammoniagenes for CC1(C)c2ccccc2-n2c1cc1oc(=O)cc(O)c1c2=O [Compound C27] , please.
// result 128

====

- MEASURED_ON: CaFADS (Corynebacterium ammoniagenes)
- Construct: made in house; host or cells: Escherichia coli BL21(DE3)
- Sequence (Q59263 whole entry): as above
- ASSAY_TEXT: Differential scanning fluorescence (thermal denaturation) binding to CaFADS
- PROTOCOL_CONDITIONS: 2 μM CaFADS, compound up to 250 μM
MEASUREMENT_KIND: Tm shift of CaFADS thermal denaturation

// query # Tm shift of CaFADS thermal denaturation lookup, item CSC(=NS(=O)(=O)c1c(C)noc1C)NNC(=O)Nc1ccc(Cl)cc1
// result more than 3 degrees

// query # Tm shift of CaFADS thermal denaturation lookup, item CC(C)c1ccc(NC(=S)NNC(=O)NC(=O)c2csc([N+](=O)[O-])c2)cc1
// result more than 3 degrees

====

- MEASURED_ON: FMNAT activity of CaFADS (Corynebacterium ammoniagenes, UniProt Q59263)
- Construct: made in house; host or cells: Escherichia coli BL21(DE3)
- Sequence (Q59263 whole entry): as above
- ASSAY_TEXT: Inhibition of the FMNAT activity of CaFADS
- Format: biochemical
- PROTOCOL_CONDITIONS: residual activity at 250 μM of compound, 25 °C
Assign FMNAT % Res. act. 250 μM to each entry below.
Answers are plain numbers, in %.

Consider the reported FMNAT % Res. act. 250 μM for these compounds:
// query # FMNAT % Res. act. 250 μM lookup, item CC1(C(=O)O)CCC2C(CCC3CC(O)CCC32C)C1C=C1Nc2ccccc2C1=O (stereo not drawn) [Compound C3]
// result 48

// query # FMNAT % Res. act. 250 μM lookup, item CC(C)c1ccc(NC(=S)NNC(=O)NC(=O)c2csc([N+](=O)[O-])c2)cc1 [Compound C6]
// result 48

// query # FMNAT % Res. act. 250 μM lookup, item CSC(=NS(=O)(=O)c1c(C)noc1C)NNC(=O)Nc1ccc(Cl)cc1 [Compound C9]
// result 56

Alright, here's another compound for you.
// query # FMNAT % Res. act. 250 μM lookup, item O=C(NCCNc1ccc(C(F)(F)F)cc1[N+](=O)[O-])c1cccnc1Oc1ccccc1 [Compound C26]
// result 72

====

- Test system: C. ammoniagenes
- ASSAY_TEXT: MIC, resazurin broth microdilution
- Type: cell-based, Corynebacterium ammoniagenes
- PROTOCOL_CONDITIONS: C. ammoniagenes, media MH
Assign MIC to each entry below.
Numbers only, in µM.

// query # MIC lookup, item COc1ccc(C(NC(=O)CCC(NC(=O)OCc2ccccc2)C(=O)O)c2ccc(OC)cc2)cc1 (centres unmarked) [Compound C2]
// result 128

Further cases:
// query # MIC lookup, item O=C(Nc1ccccc1C(=O)O)OCC1c2ccccc2-c2ccccc21 [Compound C5]
// result 32

====

The molecules below have reported log10(Kd) for UniProtKB Q59263.
On a log10 scale: recorded Kd, unit µM.

// query # log10(Kd) lookup, item CC1(C(=O)O)CCC2C(CCC3CC(O)CCC32C)C1C=C1Nc2ccccc2C1=O (centres unmarked)
// result 1.26

Hi, could you look up log10(Kd) for each item in my list?
1. O=C(Nc1ccccc1C(=O)O)OCC1c2ccccc2-c2ccccc21
2. CC(C)c1ccc(NC(=S)NNC(=O)NC(=O)c2csc([N+](=O)[O-])c2)cc1
3. O=C(O)c1ccccc1C(=O)NC1CCN(c2nccc(C(F)(F)F)n2)CC1
4. CSC(=NS(=O)(=O)c1c(C)noc1C)NNC(=O)Nc1ccc(Cl)cc1

// result
1. 0.23
2. 1.61
3. 0.48
4. 0.81

====

Assign MIC to each entry below.
- Test system: E. coli
- ASSAY_TEXT: MIC, resazurin broth microdilution
- Type: cell-based, Escherichia coli
- PROTOCOL_CONDITIONS: media LB

Consider the reported MIC for these compounds:
// query # MIC lookup, item COc1ccc(NC(=O)CC(CC(=O)O)c2cc(OC)c(OC)c(OC)c2)cc1 (centres unmarked)
// result > 64 µM

// query # MIC lookup, item Cc1ccc(OCC2SCCN2C(=O)c2c(-c3c(Cl)cccc3Cl)noc2C)c([N+](=O)[O-])c1 (centres unmarked)
// result > 256 µM

// query # MIC lookup, item Cc1c(N=CN(C(=O)c2ccccc2)c2cccc([N+](=O)[O-])c2C)cccc1[N+](=O)[O-]
// result > 256 µM

// query # MIC lookup, item CC1=C(C)CC(C(=O)Nc2ccc(Oc3ccc(Cl)cc3)cc2)C(C(=O)O)C1 (centres unmarked)
// result > 256 µM

// query # MIC lookup, item O=C(O)CC(CC(=O)Nc1ccc2ccccc2n1)c1ccccc1 (centres unmarked)
// result > 64 µM

// query # MIC lookup, item CSC(=NS(=O)(=O)c1c(C)noc1C)NNC(=O)Nc1ccc(Cl)cc1
// result > 64 µM

// query # MIC lookup, item NS(=O)(=O)c1ccc(NC(=O)CC(CC(=O)O)c2ccccc2)cc1 (centres unmarked)
// result > 256 µM

// query # MIC lookup, item COc1ccc(C(NC(=O)CCC(NC(=O)OCc2ccccc2)C(=O)O)c2ccc(OC)cc2)cc1 (centres unmarked)
// result > 64 µM

// query # MIC lookup, item N#Cc1ccc(C=NNC(=O)c2cnn(-c3ccc([N+](=O)[O-])cc3)c2C(F)(F)F)cc1
// result > 64 µM

// query # MIC lookup, item O=C(O)c1ccccc1C(=O)NC1CCN(c2nccc(C(F)(F)F)n2)CC1
// result > 256 µM

Hi, could you look up MIC for each item in my list?
1. CC1(C)c2ccccc2-n2c1cc1oc(=O)cc(O)c1c2=O
2. O=C(O)C(=Cc1ccc2c(c1)OCO2)NC(=O)c1ccccc1
3. CC(C)c1ccc(NC(=S)NNC(=O)NC(=O)c2csc([N+](=O)[O-])c2)cc1
4. CC1(C(=O)O)CCC2C(CCC3CC(O)CCC32C)C1C=C1Nc2ccccc2C1=O (centres unmarked)

// result
> 256 µM
> 64 µM
> 64 µM
> 64 µM

====

Assign MIC to each entry below.
- Tested on: C. ammoniagenes
- ASSAY_TEXT: MIC, resazurin broth microdilution
- Type: cell-based, Corynebacterium ammoniagenes
- PROTOCOL_CONDITIONS: C. ammoniagenes, media MH

Consider the reported MIC for these compounds:
// query # MIC lookup, item O=C(O)c1ccccc1C(=O)NC1CCN(c2nccc(C(F)(F)F)n2)CC1
// result > 256 µM

// query # MIC lookup, item O=C(O)CC(CC(=O)Nc1ccc2ccccc2n1)c1ccccc1 (stereo not drawn)
// result > 256 µM

Alright, here's another compound for you.
// query # MIC lookup, item O=C(O)C(=Cc1ccc2c(c1)OCO2)NC(=O)c1ccccc1
// result > 256 µM
